Hello, the source for this data is PubChem BioAssay (NCI), in case you need it.

Tested on: UACC-62 melanoma
ASSAY_TEXT: NCI tumour cell line growth inhibition, 48 h; in the data active = GI50 below about 0.43 µM; inactive = the rest
*1 amine or outer side, *2 acyl side, *3 side chain or, on linkers, in order; H or OH if unused. Where a SMILES comes first, the peptide text is derived from it. Bridges are numbered along the chain shown (N, C = ends). [ ]: non-standard residue; d: D form. The star is where a group is joined. Phe(3-Me) = Cc1cccc(C[C@H](N)C(=O)O)c1; NH(4-Cl-2-F-phenyl) = Fc1cc(Cl)ccc1N*; Pro(4R-Me) = C[C@H]1CN[C@H](C(=O)O)C1; Propanoyl(3-NMe2) = CN(C)CCC(=O)*; Hyp = O=C(O)[C@@H]1C[C@@H](O)CN1; aThr = C[C@H](O)[C@H](N)C(=O)O; Pip = O=C(O)[C@@H]1CCCCN1; CO = O=C([*:1])[*:2]
Result category, one only: active, inactive

Record lookup: outcome of this test for CCCCCCCCCC(CCCC(O)CC(=O)O)OC1OC(COC2OC(C)C(O)C(O)C2O)C(O)C(O)C1OC1OC(CO)C(O)C(O)C1OC1OC(C)C(O)C(O)C1O (centres undefined) ?
inactive

Record lookup: outcome of this test for Cc1cccc(C[C@H](NC(=O)Nc2ccc(Cl)cc2F)C(=O)N[C@@H]2C(=O)N3C[C@H](OC(=O)CCN(C)C)C[C@H]3C(=O)N3CCCC[C@H]3C(=O)N[C@@H](C)C(=O)N3C[C@H](C)C[C@H]3C(=O)O[C@H]2C)c1 ({NH(4-Cl-2-F-phenyl)-CO}-[Phe(3-Me)][aThr][Hyp](Propanoyl(3-NMe2))[Pip]A[Pro(4R-Me)]; ester 2-C) ?
inactive

Record lookup: outcome of this test for COc1ccc(-c2nocc2-c2cc(OC)c(OC)c(OC)c2)cc1 ?
active

Record lookup: outcome of this test for O=S(=O)(NCCCNc1cc(-c2cn(-c3ccccc3)nc2-c2cccc(O)c2)ccn1)c1ccc(Cl)cc1 ?
inactive

Record lookup: outcome of this test for Nc1c(C(=O)Nc2ccccc2)sc2nc3c(cc12)CCCC3 ?
inactive

Record lookup: outcome of this test for COc1cc(C2C(C#N)=C(N)Oc3cc(O)ccc32)cc(OC)c1OC (centres undefined) ?
active

Record lookup: outcome of this test for O=CC1(C2(C=O)c3ccccc3-c3ccccc32)c2ccccc2-c2ccccc21 ?
inactive

Record lookup: outcome of this test for O=C1c2cccnc2C(=O)c2c1c(C(=O)OCCN1CCOCC1)c1ccccn21 ?
active

Record lookup: outcome of this test for O=C1C(Cl)=C(Nc2cccc(O)c2)C(=O)N1c1cccc(Cl)c1Cl ?
inactive

Record lookup: outcome of this test for C=C(CN1CCN(c2cccc(F)c2)CC1)c1ccc(C(=O)Nc2ccccc2N)cc1 ?
inactive

Record lookup: outcome of this test for Cc1ccc(S(=O)(=O)n2cc(-c3nnnn3-c3ccc(Cl)cc3)c(=O)c3ccccc32)cc1 ?
inactive

Record lookup: outcome of this test for C[C@]12CC[C@H]3[C@@H](C[C@@H]4N=C(c5ccc(O)cc5)S[C@@]45C[C@H](O)CC[C@]35C)[C@@H]1CC[C@@H]2O ?
inactive

====

Test system: UO-31 renal
ASSAY_TEXT: NCI tumour cell line growth inhibition, 48 h
Measured TGI accompanies every entry in the list below.
// units = µM; emit number, no label

Some solved cases for reference:
| COMPOUND | UNIT_LABEL | TGI |
| --- | --- | --- |
| Cc1c2cccc-2c(OCCO)cc2c1[nH]c1ccccc12 | µM | 3.09 |
| Cc1cccc(NC(=S)N/N=C(/c2ccccc2)c2ccccn2)c1 | µM | 10.4 |
| O=S(=O)(NCCCNc1cc(-c2cn(-c3ccccc3)nc2-c2cccc(O)c2)ccn1)c1ccc(Cl)cc1 | µM | 8.64 |
| COc1cc2c3c(c4c5ccccc5[nH]c4c2c(OC)c1OC)C(=O)N(CCN1CCCCC1)C3=O | µM | 2.32 |
| CCCN1CCN(c2ccc3nc(-c4ccc5nc(-c6ccc(OCC)c(OCC)c6)[nH]c5c4)[nH]c3c2)CC1 | µM | 3.32 |

Report value only: TGI, UO-31 renal, Cc1ccc(NC(=O)c2nc(S(C)=O)oc2-c2ccc(F)cc2)cc1Nc1nccc(-c2cccnc2)n1 (stereo not drawn)
3.14

Report value only: TGI, UO-31 renal, COc1cc(NC(N)=NCCC(C)(C)c2ccc(C(F)(F)F)cc2)ncc1C#N
2.66

Report value only: TGI, UO-31 renal, CC1Cc2cc(O)ccc2C2[C@@H]1C1CC[C@H](O)[C@@]1(C)C[C@@H]2O[N+](=O)[O-] (stereo partly drawn)
63.7

Report value only: TGI, UO-31 renal, CC[C@]12CCCN3CC[C@]4(C(=C(C(=O)OC)C1)Nc1ccccc14)[C@@H]32
24.1

Report value only: TGI, UO-31 renal, CCOC(=O)C1(Cc2ccccc2)Cc2ccccc2C1=O (stereo not drawn)
57.3

====

Measured TGI accompanies every entry in the list below.
Test system: SK-OV-3 ovarian
ASSAY_TEXT: NCI tumour cell line growth inhibition, 48 h
// units = µM; emit number, no label

Some solved cases for reference:
| TEST_SMILES | TGI (µM) |
| --- | --- |
| CCSc1nc2n(c(=S)n1)CCN2C | 50.2 |
| CC(C)[C@@H]1CC[C@@H]2[C@@H]1[C@H](OC(=O)/C=C/c1ccccc1)[C@]1(C(C)C)C[C@@H](OC(=O)CO)[C@@]2(C)O1 | 32.5 |

Answer with the recorded TGI for the molecule listed here: COc1ccccc1Cn1c2c(c3c(C(=O)NCCN(C)C)c(O)ccc31)C(=O)c1ccccc1C2=O
43.4

====

Tested on: MCF7 breast
ASSAY_TEXT: NCI tumour cell line growth inhibition, 48 h; in the data active = GI50 below about 0.43 µM; inactive = the rest
Result category, one only: 1 (yes) = active, 0 (no) = inactive

| TEST_SMILES | CATEGORY_LABEL |
| --- | --- |
| Cc1nn(-c2ccc(Br)cc2)c(C)c1CC(=O)c1cc(O)ccc1O | 0 (no) |
| O=c1cccc(C#CC#C/C=C/CO)o1 | 0 (no) |
| C[C@@]1(N2C(=O)OC[C@@H]2c2ccccc2)C(=O)N([C@H](CC(=O)N2CCC(N3CCCCC3)CC2)C(=O)NCc2cccc(C(F)(F)F)c2)[C@@H]1/C=C/c1ccccc1 | 0 (no) |
| O=C1c2cccnc2C(=O)c2c1c(C(=O)OCCN1CCOCC1)c1ccccn21 | 1 (yes) |

Record lookup: outcome of this test for CC[C@]12CCCN3CC[C@]4(C(=C(C(=O)OC)C1)Nc1ccccc14)[C@@H]32 ?
0 (no)

====

Measured TGI accompanies every entry in the list below.
System: SK-MEL-2 melanoma
ASSAY_TEXT: NCI tumour cell line growth inhibition, 48 h
// units = µM; emit number, no label

| COMPOUND | UNIT_LABEL | TGI |
| --- | --- | --- |
| C[C@]12CC[C@H]3[C@@H](C[C@@H]4N=C(c5ccc(O)cc5)S[C@@]45C[C@H](O)CC[C@]35C)[C@@H]1CC[C@@H]2O | µM | 69.4 |
| COc1cc2c(cc1OC)C(Cc1c3ccccc3cc3ccccc13)N(C)CC2 (stereo not given) | µM | 32.6 |
| Cc1cc(NCCCCCCNc2cc(C)nc3ccc(Cl)cc23)c2cc(Cl)ccc2n1 | µM | 46 |
| Cn1cnc([N+](=O)[O-])c1Sc1nc(N)nc2c1ncn2Cc1ccccc1 | µM | 40.4 |

Report value only: TGI, SK-MEL-2 melanoma, COc1cc(NC(N)=NCCC(C)(C)c2ccc(C(F)(F)F)cc2)ncc1C#N
3.38

====

Measured TGI accompanies every entry in the list below.
System: MDA-N
ASSAY_TEXT: NCI tumour cell line growth inhibition, 48 h

Some solved cases for reference:
| COMPOUND | TGI |
| --- | --- |
| CCCCOC(=O)C1CN2C(=NC1(C(F)(F)F)C(F)(F)F)Sc1ccccc12 (stereo not given) | > 100 µM |
| Cc1nc2c(ncn2CCO)c(=O)[nH]1 | > 100 µM |
| O=C1OC(c2ccccc2)N/C1=C\c1ccc2c(c1)OCO2 (stereo not given) | > 100 µM |

Answer with the recorded TGI for the compound listed here: CC[C@@]1(O)C(=O)OCc2c1cc1n(c2=O)Cc2c-1nc1ccccc1c2/C=N\NC(=O)C(C)N (stereo not given in full)
> 100 µM

Answer with the recorded TGI for the compound listed here: O=C1OC2C(O)C(=O)OC2C1O (stereo not given)
> 100 µM

Answer with the recorded TGI for the compound listed here: COC(=O)CCC(=O)c1ccc2c(c1)CC1(C2)Cc2ccc3c(c2C1)CCCC3=O (stereo not given)
47.9 µM

Answer with the recorded TGI for the compound listed here: CCCCCC(/C=N/N)C(O)(C(F)(F)F)C(F)(F)F (stereo not given)
> 10 µM

Answer with the recorded TGI for the compound listed here: CCCCCCCCCCCCP(=O)(O)OCC(N)C(=O)O (stereo not given)
55.4 µM

Answer with the recorded TGI for the compound listed here: CN1CCN(c2ccc(-n3cc(C(=O)O)c(=O)c4cc(F)c(N5CCN(C)CC5)cc43)nc2)CC1
> 100 µM

Answer with the recorded TGI for the compound listed here: C[C@]12CCC(=O)C=C1CC[C@@H]1C2CC[C@]2(C)Nc3c(ncn3-c3ccc(F)cc3)CC12 (stereo not given in full)
42.8 µM
